test system: P388 leukemia ip, CD2F1 mice, survival T/C; assay: NCI In Vivo Anticancer Drug Screen. Data for tumor model P388 Leukemia (intraperitoneal) in CD2F1 (CDF1) mice; conditions: endpoint: median survival time; dose: 50.0 mg/kg/injection; schedule: Q01DX009 (ip); vehicle: Klucel (hydroxypropylcellulose) (HPC); higher = longer survival
Toxic doses and inconclusive results are not listed.
attribute_measured: T/C

Could you tell me which T/C is on file for `CCCCCCNC(=S)Nc1ccc2cc(C)ccc2n1` ?
91 % of control

Could you tell me which T/C is on file for `Cc1c(O)ccc(C(=O)C(=O)C(C)C)c1O` ?
115 % of control

Could you tell me which T/C is on file for CCOC(=O)c1ccc(NC(c2ccc(N(CCCl)CCCl)cc2)P(=O)(Oc2ccccc2)Oc2ccccc2)cc1 (stereo unspecified) ?
93 % of control

Could you tell me which T/C is on file for `O=Cc1ccc(S(=O)(=O)F)cc1` ?
99 % of control

Could you tell me which T/C is on file for Clc1cccc(Cl)c1C1CSc2ccccc2N=C1c1ccccc1 (stereo unspecified) ?
94 % of control

Could you tell me which T/C is on file for `O=S(=O)(OCC#CCOS(=O)(=O)c1ccc(Cl)c(Cl)c1)c1ccc(Cl)c(Cl)c1` ?
91 % of control
